System: MS2 coat protein
Experiment: apparent KD of MS2 coat protein; higher = weaker reporter binding
Conditions: Eterna round: R107; input ligand: none
Reported apparent KD of MS2 coat protein values follow for various sequences
Write the answer as a number in nM, unit excluded.

Some solved entries appear below for comparison.
sequence_record	apparent KD of MS2 coat protein (nM)
AUGCUUGUCAGAAGGAGCGUCUUUAACAUGAGGAUCACCCAUGUAUCAUGGAAUUUGAUGAGACAGGUAGGUCGCUGAAUAGUAA [JR_SSArginiB_Sub021]	29.8
AAUAUAUAGACGGCCGCCACUGGAAUUAAUACAUGAGGAUCACCCAUGUGAAGAGGAUAAUAACACAGGACCGGGUCUUCAUGUA [SS Tryp B Tesla 1.2]	37.4
UUGUUGUUUGGAAGGAGCGUGGAUGAGUGUGGACAUGAGGAUCACCCAUGUUGGAUGAUACCGCAGGUAGGUCGCCGGGUGGUGG [11.aD]	164
GCUGCUUUGGGAAGGAGCGCUGCGGUAUUGUGGCGGACAUGAGGAUCACCCAUGUGCCUGCAGCAGGUAGGUCGCUUAGGGCAGC [EAP NP+V+V2 #17]	68.8
AGCUCGCAUCCUCAAGCGUCAAAGACGCGUCGAGGACCGGUACGGCCGCCACUCGACAAGAGGAUCACCCUUGUCUAAGCGAGCA [TrypAX 4 #SwitchBubble #AlternativeMS2 #MS2Late #CuTurnoff]	195

Kindly review the next sequence as well.
Give recorded apparent KD of MS2 coat protein with MS2 coat protein for the following sequence: GCUAUGGCUAGAAGGAGCGUGAAUUUCAGAAAACAUGAGGAUCACCCAUGUAAGGAUAUGACACAGGUAGGUCGCUAGCCAUAGC [SSAB NP+V+V2 #19]
10.8
